Source listed as ChEMBL document CHEMBL4513216.

test: Toxicity liver stage against HepG2, at 10uM
Type: cell-based
Set-up: test concentration 10 uM, cell line HepG2-A16-CD81EGFP
condition-details: human, HepG2-A16-CD81EGFP cells; read-out: INHIBITION
measured-parameter: cytotoxicity at 10 µM (%)
Numbers only, in %.

# batch: return cytotoxicity at 10 µM for each of the 4 molecules below
1. COc1ccc(OC)c(CNCc2c(C)nc3sc(C)cn23)c1
2. COCC(=O)NCC1Cn2nnc(-c3ccoc3)c2CO1 (centres undefined)
3. Cc1ncoc1C(=O)N1CCn2c(COc3cccnc3)cnc2C1C (centres undefined)
4. Cc1ccnc(NCCSc2nccn2C)n1

1: 7.06; 2: 17; 3: -8.93; 4: -42
